The following variants are listed with their measured folding stability dG values.
B1: HEEH_KT_rd6_0007 (parent)
chain: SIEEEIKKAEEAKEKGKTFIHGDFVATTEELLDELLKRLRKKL

Variants of: B1
PROTOCOL_DETAILS: folding stability dG (cDNA display proteolysis); higher = more stable
DETAILS: PBS, room temperature
ENDPOINT: folding stability dG (kcal/mol)

>>> measured_number("K41R")
1.54
>>> measured_number("V25N")
0.974
>>> measured_number("K41I")
1.2
>>> measured_number("A12K")
0.526
>>> measured_number("L36H")
0.249
>>> measured_number("E11H")
0.939
>>> measured_number("E11Q")
1.06
>>> measured_number("K8H")
0.921
>>> measured_number("A9I")
1.5
>>> measured_number("E5I")
2.4
>>> measured_number("K8Y")
0.777
